System: PmTbr T-box DNA-binding domain (GST fusion);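 further: 200 nM protein in PBS on universal arrays averaged over duplicate arrays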
Sequence: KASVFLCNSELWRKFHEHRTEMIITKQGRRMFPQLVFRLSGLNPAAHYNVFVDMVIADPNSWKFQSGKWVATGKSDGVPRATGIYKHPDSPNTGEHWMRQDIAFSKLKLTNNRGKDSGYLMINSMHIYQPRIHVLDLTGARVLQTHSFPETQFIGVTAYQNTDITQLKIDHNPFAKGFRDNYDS
Experiment: PBM E-score of 8-mer (E-score (dimensionless, -0.5 to 0.5)); higher = stronger binding preference
Conditions: the construct has about 5 more residues each side
Whole data set: some 33,000 sequences, median “E-score (dimensionless, -0.5 to 0.5)” near -0.049, cut for the highest 2% near 0.37. The sample as a whole holds a higher share of the highest values than the screen did.
Entries and their measured PBM E-score of 8-mer follow.
Enter the number alone.

ACAGTGTG
0.324
AATTGGGA
-0.0137
GATGGCCC
-0.138
GGCGAGCA
-0.102
GGAGAGCC
-0.27

Query block: Check the records and state PBM E-score of 8-mer for ATGAGCAC
Result block: -0.247

Query block: Report measured PBM E-score of 8-mer; entry is GAGCGAAC
Result block: 0.0537

Query block: Provide PBM E-score of 8-mer value for the following sequence: ATCACGAG
Result block: 0.167

###

Test system: PmTbr T-box DNA-binding domain (GST fusion);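 further: 200 nM protein in PBS on universal arrays averaged over duplicate arrays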
Sequence: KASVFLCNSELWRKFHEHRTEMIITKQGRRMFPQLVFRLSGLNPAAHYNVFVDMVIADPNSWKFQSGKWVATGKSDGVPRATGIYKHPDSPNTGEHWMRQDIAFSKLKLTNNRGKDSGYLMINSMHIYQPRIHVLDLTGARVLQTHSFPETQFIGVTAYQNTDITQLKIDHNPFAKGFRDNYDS
Test: PBM E-score of 8-mer (E-score (dimensionless, -0.5 to 0.5)); Tbr is Tbrain of the sea star Patiria miniata (Pm) or the sea urchin Strongylocentrotus purpuratus (Sp); higher = stronger binding preference
Conditions: target sequence: T-box / the construct has about 5 more residues each side
The full ranking holds about 33,000 sequences; the median of “E-score (dimensionless, -0.5 to 0.5)” is about -0.049, and the highest 2% start at about 0.37. The sample as a whole holds a higher share of the highest values than the screen did.
Label true (1) when PBM E-score of 8-mer >= 0.1; otherwise false (0).

CACCTCCG
true (1)
ATCAGGTA
false (0)
ATCAGGTC
false (0)
CGAGTGCA
false (0)
CATCAAAG
false (0)

Query block: Given the entry ACGCTAGT , answer whether its PBM E-score of 8-mer meets or surpasses 0.1.
Result block: false (0)

Query block: Check if PBM E-score of 8-mer >= 0.1 (inclusive). Item: CACTTCAC
Result block: true (1)

Query block: Quick check, PBM E-score of 8-mer >= 0.1? GCAGGGTA
Result block: false (0)

Query block: Test whether the sequence AACTTGTC records PBM E-score of 8-mer of 0.1 or higher.
Result block: true (1)

Query block: Decide: is the reported value of PBM E-score of 8-mer for CACTTGTC equal to or greater than 0.1?
Result block: true (1)

Query block: Does the reported PBM E-score of 8-mer for CACTTCCG fall at or above the 0.1 mark?
Result block: true (1)

Query block: Given the entry CACTTGCG , answer whether its PBM E-score of 8-mer meets or surpasses 0.1.
Result block: true (1)

Query block: For this sequence, is measured PBM E-score of 8-mer 0.1 or higher? CACTTCAG
Result block: true (1)

Query block: Determine whether measured PBM E-score of 8-mer meets or exceeds 0.1 for GACCTCCC
Result block: false (0)

Query block: Hi, just wondering whether TGTTTGAA shows PBM E-score of 8-mer of 0.1 or higher.
Result block: true (1)

Query block: Is it the case that CACTTGCA has PBM E-score of 8-mer reaching or exceeding 0.1?
Result block: true (1)

Query block: Assess whether reported PBM E-score of 8-mer for AGGTTCTC sits at 0.1 or higher.
Result block: false (0)

Query block: Confirm if PBM E-score of 8-mer reported for the sequence AACCTAGC is 0.1 or above.
Result block: false (0)

Query block: Would you say AATCACCT shows PBM E-score of 8-mer at minimum 0.1?
Result block: true (1)

Query block: Quick check, PBM E-score of 8-mer >= 0.1? AACCTCCG
Result block: false (0)

Query block: Reported PBM E-score of 8-mer at or above 0.1? CACTTCCC
Result block: true (1)

Query block: Check if PBM E-score of 8-mer >= 0.1 (inclusive). Item: AACCTCCA
Result block: false (0)
